assayedTarget: Cysteine protease ATG4B (Homo sapiens, UniProt Q9Y4P1)
Sequence (Q9Y4P1 whole entry): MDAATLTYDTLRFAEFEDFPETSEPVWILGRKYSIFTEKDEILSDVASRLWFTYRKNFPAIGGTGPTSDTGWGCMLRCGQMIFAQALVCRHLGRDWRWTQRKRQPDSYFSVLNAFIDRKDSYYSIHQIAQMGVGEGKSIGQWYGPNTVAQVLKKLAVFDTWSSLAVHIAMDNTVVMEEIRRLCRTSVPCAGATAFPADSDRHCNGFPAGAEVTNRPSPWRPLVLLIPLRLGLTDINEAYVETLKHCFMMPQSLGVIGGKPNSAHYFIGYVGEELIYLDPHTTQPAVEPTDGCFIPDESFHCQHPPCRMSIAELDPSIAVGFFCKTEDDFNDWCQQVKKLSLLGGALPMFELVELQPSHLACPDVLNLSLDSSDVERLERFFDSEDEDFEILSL
measurementProtocol: Inhibition of recombinant ATG4B (unknown origin) expressed in Escherichia coli BL21(DE3) pLysS cells assessed as inhibition constant using LC3-GST as substrate incubated for 3 hrs by coomassie brilliant blue staining based assay
pKi: −log10 of the molar value.
quantityKind: pKi

[[record]]
smilesdata = "CCCCCCCCCCCc1ccc(C(=O)/C=C/C(=O)O)cc1"
quantitykind = "pKi"
endpointresult = 5.51

[[record]]
smilesdata = "CCCCCCCCCCCCCCCCCCc1ccc(C(=O)/C=C/C(=O)O)cc1"
quantitykind = "pKi"
endpointresult = 5.34


* * *

assayedTarget: Phospholipase A2 (Homo sapiens, UniProt P04054)
Sequence (P04054 whole entry): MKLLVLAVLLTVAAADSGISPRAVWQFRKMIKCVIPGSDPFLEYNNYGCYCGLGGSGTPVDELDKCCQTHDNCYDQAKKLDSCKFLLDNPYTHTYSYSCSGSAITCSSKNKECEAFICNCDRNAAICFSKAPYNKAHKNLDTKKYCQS
pIC50: −log10 of the molar value.
quantityKind: pIC50

Answered cases to consult:
[[record]]
smilesdata = "CCCCCCCCCCCCCCCCCCCc1ccc(C(=O)/C=C/C(=O)O)cc1"
quantitykind = "pIC50"
endpointresult = 6.46

[[record]]
smilesdata = "CCCCCCCCCCCCCCCc1ccc(C(=O)/C=C/C(=O)O)cc1"
quantitykind = "pIC50"
endpointresult = 5.27

[[record]]
smilesdata = "CCCCCCCCCCc1ccc(C(=O)/C=C/C(=O)O)cc1"
quantitykind = "pIC50"
endpointresult = 5.80


P. CCCCCc1ccc(C(=O)/C=C/C(=O)O)cc1
Q. CCCCCCCCCc1ccc(C(=O)/C=C/C(=O)O)cc1
Exercise: Larger number for pIC50: P , or Q ? Lab log: write the label of the selected item as the result.
Solution: Q
